- SYSTEM TESTED: T1, Secreted Protein, Acidic, Rich in Cysteine (SPARC), recombinant murine (murine, UniProt P07214 18-302, fluorescent label NT-495, covalently linked by NHS coupling (in the thermophoresis only; unlabelled in the gel filtration))
- T1 construct: SPARC, mouse, recombinant; most likely the mature secreted protein; also called recombinant SPARC; source: bought: R&D Systems or Peprotech (recombinant murine)
- T1 sequence (looked up): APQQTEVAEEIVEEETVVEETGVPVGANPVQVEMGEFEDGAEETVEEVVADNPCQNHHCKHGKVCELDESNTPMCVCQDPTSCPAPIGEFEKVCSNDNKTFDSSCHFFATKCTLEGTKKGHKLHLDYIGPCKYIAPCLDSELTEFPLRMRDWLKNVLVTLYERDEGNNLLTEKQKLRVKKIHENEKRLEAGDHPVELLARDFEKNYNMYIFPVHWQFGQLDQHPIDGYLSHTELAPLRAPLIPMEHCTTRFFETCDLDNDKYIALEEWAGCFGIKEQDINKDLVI
- ASSAY NOTES: MST; Monolith NT.115; 4.5 nM NT-495-labelled SPARC, unlabelled chemokine titrated; Ca-MST buffer (50 mM Tris pH 7.4, 150 mM NaCl, 2 mM CaCl2, 0.05% Tween 20); room temperature; three measurements; thermophoresis plus t-jump
- STUDY CONDITIONS: both partners purified

{"BINDER": "CCL19, recombinant murine (ligand, UniProt O70460 26-108, looked up, CCL19, mouse, recombinant; Most likely the mature chemokine without its signal peptide; source: bought: R&D Systems or Peprotech (recombinant murine)) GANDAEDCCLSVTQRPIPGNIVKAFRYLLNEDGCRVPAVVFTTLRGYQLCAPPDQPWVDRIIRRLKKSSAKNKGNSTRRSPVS", "Kd (nM)": 1.9}
